# STUDY_TARGET: CXCR4 (Homo sapiens)
# Sequence (P61073 whole entry): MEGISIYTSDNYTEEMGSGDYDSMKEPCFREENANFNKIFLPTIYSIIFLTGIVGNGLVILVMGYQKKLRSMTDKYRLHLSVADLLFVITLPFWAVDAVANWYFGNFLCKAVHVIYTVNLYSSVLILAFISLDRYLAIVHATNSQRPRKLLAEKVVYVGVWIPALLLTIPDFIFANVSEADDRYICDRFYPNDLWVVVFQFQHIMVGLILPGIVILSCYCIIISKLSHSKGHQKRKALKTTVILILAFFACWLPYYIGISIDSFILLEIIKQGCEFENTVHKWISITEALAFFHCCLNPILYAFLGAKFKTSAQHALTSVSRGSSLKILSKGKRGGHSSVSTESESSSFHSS
# TEST: Binding affinity assay on CXCR4 receptor protein (inhibition of 12G5 monoclonal antibody binding, CHO cells stably transfected with CXCR4)
# Parameters: expressed in transfected cells; host or cells: CHO cells, stably transfected (G418 selection)
# CONDITION: 40 min; 0.1 μM compound; inhibition of 12G5 antibody binding to CXCR4 on CHO-CXCR4 cells; read-out: Inhibition ratio interval of compounds at 0.1 μM
For each of the compounds below, state its inhibition at 0.1 µM.

**Q:** Quick check: inhibition at 0.1 µM of N=C(N)NCCC[C@H](N)C(=O)NCc1ccc(CNCCCNC2CCCCC2)cc1 ?
**A:** 25 to 49%

**Q:** Quick check: inhibition at 0.1 µM of N=C(N)NCCC[C@H](NC(=O)c1ccc(F)cc1)C(=O)NCc1ccc(CNCCCNC2CCCCC2)cc1 ?
**A:** 50 to 74%

**Q:** Quick check: inhibition at 0.1 µM of N=C(N)NCCC[C@H](NC1CCCc2cccnc21)C(=O)NCc1ccc(CNCCCNC2CCCCC2)cc1 (stereo partly shown) ?
**A:** 0 to 24%

**Q:** Quick check: inhibition at 0.1 µM of O=C(NCc1ccc(CNCCCNC2CCCCC2)cc1)[C@H](Cc1ccc(O)cc1)NCc1ccccn1 ?
**A:** 50 to 74%

**Q:** Quick check: inhibition at 0.1 µM of N=C(N)NCCC[C@H](NCc1ccccn1)C(=O)NCc1ccccc1 ?
**A:** 0 to 24%

**Q:** Quick check: inhibition at 0.1 µM of O=C(NCc1ccc(CNCCCNC2CCCCC2)cc1)[C@@H]1CCCN1Cc1ccccn1 ?
**A:** 75 to 100%

**Q:** Quick check: inhibition at 0.1 µM of C[C@H](NCc1ccccn1)C(=O)NCc1ccc(CNCCCNC2CCCCC2)cc1 ?
**A:** 75 to 100%

**Q:** Quick check: inhibition at 0.1 µM of O=C(NCc1ccc(CNCCCNC2CCCCC2)cc1)[C@H](Cc1ccc2ccccc2c1)NCc1ccccn1 ?
**A:** 50 to 74%

**Q:** Quick check: inhibition at 0.1 µM of N=C(N)NCCC[C@H](NC(=O)[C@@H](N)Cc1ccc(O)cc1)C(=O)NCc1ccc(CNCCCNC2CCCCC2)cc1 ?
**A:** 75 to 100%

**Q:** Quick check: inhibition at 0.1 µM of N=C(N)NCCC[C@H](NCc1ccccn1)C(=O)NCc1ccc(CNCCCNC2CCCCC2)cc1 ?
**A:** 75 to 100%

**Q:** Quick check: inhibition at 0.1 µM of N=C(N)NCCC[C@@H](NCc1ccccn1)C(=O)NCc1ccc(CNCCCNC2CCCCC2)cc1 ?
**A:** 50 to 74%

**Q:** Quick check: inhibition at 0.1 µM of O=C(NCc1ccc(CNCCCNC2CCCCC2)cc1)[C@H](CCCNC1CCCCC1)NCc1ccccn1 ?
**A:** 50 to 74%

**Q:** Quick check: inhibition at 0.1 µM of N=C(N)NCCC[C@H](NCc1ccc(F)cc1)C(=O)NCc1ccc(CNCCCNC2CCCCC2)cc1 ?
**A:** 50 to 74%

**Q:** Quick check: inhibition at 0.1 µM of N=C(N)NCCC[C@H](NCc1ccc(-c2ccccc2)cc1)C(=O)NCc1ccc(CNCCCNC2CCCCC2)cc1 ?
**A:** 50 to 74%

**Q:** Quick check: inhibition at 0.1 µM of N=C(N)NCCC[C@H](NC(=O)C1CCC(F)(F)CC1)C(=O)NCc1ccc(CNCCCNC2CCCCC2)cc1 ?
**A:** 50 to 74%

**Q:** Quick check: inhibition at 0.1 µM of N=C(N)NCCC[C@H](N)C(=O)N[C@@H](Cc1ccc2ccccc2c1)C(=O)NCc1ccc(CNCCCNC2CCCCC2)cc1 ?
**A:** 75 to 100%
